# Tested on: Escherichia coli TOP10
# Measurement protocol: shrunken log2 fold change of peptide-encoding DNA abundance (4.5 h post-induction vs induction); higher = less antimicrobial activity (less host growth inhibition)
# Condition: time post-induction: 4.5 h; library: site-saturation at positions 5, 18, 19, 20
Class Y: shrunken log2 fold change at least 0.1. Class N: shrunken log2 fold change below 0.1.

Recorded results for 4 sequences are shown here.
{"Sequence code": "RRIRFRPPRLPRPRPRPYYEPRP", "Group label": "N"}
{"Sequence code": "RRIRDRPPRLPRPRPRPITLPRP", "Group label": "N"}
{"Sequence code": "RRIRERPPRLPRPRPRPDLVPRP", "Group label": "N"}
{"Sequence code": "RRIRARPPRLPRPRPRPTSRPRP", "Group label": "Y"}

INPUT: Form field: shrunken log2 fold change at least 0.1? Entry: RRIRERPPRLPRPRPRPECLPRP
OUTPUT: N

INPUT: Try this sequence too: RRIRGRPPRLPRPRPRPMFRPRP
OUTPUT: Y

INPUT: Can you check RRIRIRPPRLPRPRPRPFHDPRP next?
OUTPUT: N

INPUT: // query: RRIRKRPPRLPRPRPRPWPPPRP
OUTPUT: Y

INPUT: Item: RRIRCRPPRLPRPRPRPDAEPRP
OUTPUT: Y

INPUT: Moving on to RRIRKRPPRLPRPRPRPIKDPRP
OUTPUT: N

INPUT: Now consider RRIRRRPPRLPRPRPRPDAAPRP and answer again.
OUTPUT: Y

INPUT: For RRIRFRPPRLPRPRPRPVNAPRP then?
OUTPUT: Y

INPUT: Moving on to RRIRDRPPRLPRPRPRPTCTPRP
OUTPUT: Y

INPUT: // repeat for RRIRRRPPRLPRPRPRPNLPPRP and report
OUTPUT: N

INPUT: Same thing, different sequence: RRIRMRPPRLPRPRPRPSLAPRP
OUTPUT: Y

INPUT: Consider next the sequence RRIRIRPPRLPRPRPRPNYDPRP in the same way.
OUTPUT: N

INPUT: Now try RRIRMRPPRLPRPRPRPWCPPRP .
OUTPUT: N

INPUT: Please do the same for RRIRGRPPRLPRPRPRPSHCPRP as well.
OUTPUT: Y

INPUT: Lookup RRIRLRPPRLPRPRPRPLVGPRP
OUTPUT: Y

INPUT: Next record, please: RRIRFRPPRLPRPRPRPIYRPRP
OUTPUT: N

----------
# Tested on: Escherichia coli TOP10
# Measurement protocol: shrunken log2 fold change of peptide-encoding DNA abundance (4.5 h post-induction vs induction); higher = less antimicrobial activity (less host growth inhibition)
# Condition: time post-induction: 4.5 h; library: site-saturation at positions 5, 18, 19, 20
Would you please tag the item 1 when its shrunken log2 fold change is 0.3 or above, and 0 when it is below?

Examples from the recorded data:
{"Sequence code": "RRIRYRPPRLPRPRPRPIEEPRP", "Group label": 0}
{"Sequence code": "RRIRVRPPRLPRPRPRPCPQPRP", "Group label": 0}
{"Sequence code": "RRIRLRPPRLPRPRPRPEWDPRP", "Group label": 0}
{"Sequence code": "RRIRARPPRLPRPRPRPELTPRP", "Group label": 1}
{"Sequence code": "RRIRDRPPRLPRPRPRPEAGPRP", "Group label": 1}

INPUT: Answer whether shrunken log2 fold change of RRIRPRPPRLPRPRPRPHRIPRP is greater than or equal to 0.3.
OUTPUT: 0

INPUT: What would you report for RRIRVRPPRLPRPRPRPIPLPRP ?
OUTPUT: 0

INPUT: Another sequence: RRIRMRPPRLPRPRPRPASVPRP
OUTPUT: 1

INPUT: And then RRIRERPPRLPRPRPRPPSQPRP , what is it?
OUTPUT: 0

INPUT: Now consider RRIRWRPPRLPRPRPRPWCLPRP and answer again.
OUTPUT: 0

----------
# Test system: Escherichia coli TOP10
# Measurement protocol: shrunken log2 fold change of peptide-encoding DNA abundance (4.5 h post-induction vs induction); higher = less antimicrobial activity (less host growth inhibition)
# Condition: time post-induction: 4.5 h; library: site-saturation at positions 5, 18, 19, 20
Satisfied means recorded shrunken log2 fold change is 0.02 or above; Not satisfied means it is below 0.02.

// known answers, use as guide
{"Sequence code": "RRIRFRPPRLPRPRPRPFITPRP", "Group label": "Not satisfied"}
{"Sequence code": "RRIRVRPPRLPRPRPRPTQQPRP", "Group label": "Satisfied"}
{"Sequence code": "RRIRIRPPRLPRPRPRPCPKPRP", "Group label": "Not satisfied"}
{"Sequence code": "RRIRKRPPRLPRPRPRPSIVPRP", "Group label": "Not satisfied"}
{"Sequence code": "RRIRRRPPRLPRPRPRPAFIPRP", "Group label": "Satisfied"}

Would you kindly look at the next entry?
INPUT: Reported shrunken log2 fold change at or above 0.02? RRIRDRPPRLPRPRPRPMIFPRP
OUTPUT: Satisfied

----------
Entries and their shrunken log2 fold change
# System: Escherichia coli TOP10
# Measurement protocol: shrunken log2 fold change of peptide-encoding DNA abundance (4.5 h post-induction vs induction); higher = less antimicrobial activity (less host growth inhibition)
# Condition: time post-induction: 4.5 h; library: site-saturation at positions 5, 18, 19, 20
Form field (numeric): enter value without unit.

Would you please look over these solved cases?
{"Sequence code": "RRIRNRPPRLPRPRPRPSWSPRP", "shrunken log2 fold change": -0.0724}
{"Sequence code": "RRIRPRPPRLPRPRPRPIAGPRP", "shrunken log2 fold change": 0.0445}
{"Sequence code": "RRIRSRPPRLPRPRPRPTWRPRP", "shrunken log2 fold change": 0.424}

INPUT: Data request, read-out shrunken log2 fold change, for RRIRPRPPRLPRPRPRPWFQPRP
OUTPUT: -0.21

INPUT: Next sequence up: RRIRSRPPRLPRPRPRPSSPPRP
OUTPUT: -0.561

INPUT: Same lookup for RRIRWRPPRLPRPRPRPFQYPRP , please.
OUTPUT: -0.199

----------
Entries annotated with measured shrunken log2 fold change
# Test system: Escherichia coli TOP10
# Measurement protocol: shrunken log2 fold change of peptide-encoding DNA abundance (4.5 h post-induction vs induction); higher = less antimicrobial activity (less host growth inhibition)
# Condition: time post-induction: 4.5 h; library: site-saturation at positions 5, 18, 19, 20
Provide a numeric answer; units are not to be included.

{"Sequence code": "RRIRFRPPRLPRPRPRPNCEPRP", "shrunken log2 fold change": 0.194}
{"Sequence code": "RRIRKRPPRLPRPRPRPTDQPRP", "shrunken log2 fold change": 0.536}
{"Sequence code": "RRIRPRPPRLPRPRPRPCPFPRP", "shrunken log2 fold change": -0.371}
{"Sequence code": "RRIRTRPPRLPRPRPRPTLPPRP", "shrunken log2 fold change": 0.149}
{"Sequence code": "RRIRTRPPRLPRPRPRPHPRPRP", "shrunken log2 fold change": 0.467}
{"Sequence code": "RRIRVRPPRLPRPRPRPSYLPRP", "shrunken log2 fold change": 0.753}
{"Sequence code": "RRIRQRPPRLPRPRPRPLTCPRP", "shrunken log2 fold change": -0.539}

INPUT: Can you share its shrunken log2 fold change? I mean this sequence: RRIRYRPPRLPRPRPRPVITPRP
OUTPUT: -0.241

----------
# Tested on: Escherichia coli TOP10
# Measurement protocol: shrunken log2 fold change of peptide-encoding DNA abundance (4.5 h post-induction vs induction); higher = less antimicrobial activity (less host growth inhibition)
# Condition: time post-induction: 4.5 h; library: site-saturation at positions 5, 18, 19, 20
Binary call on shrunken log2 fold change: TRUE from -0.2 upward, FALSE beneath that.

Previously resolved entries follow.
{"Sequence code": "RRIRFRPPRLPRPRPRPGVLPRP", "Group label": "TRUE"}
{"Sequence code": "RRIRPRPPRLPRPRPRPYYIPRP", "Group label": "FALSE"}
{"Sequence code": "RRIRWRPPRLPRPRPRPFNSPRP", "Group label": "FALSE"}
{"Sequence code": "RRIRARPPRLPRPRPRPYYRPRP", "Group label": "TRUE"}
{"Sequence code": "RRIRIRPPRLPRPRPRPMRVPRP", "Group label": "TRUE"}

INPUT: Dear colleague, could you confirm whether RRIRWRPPRLPRPRPRPDRMPRP has shrunken log2 fold change at or above -0.2?
OUTPUT: TRUE

----------
# Tested on: Escherichia coli TOP10;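 also: peptides expressed intracellularly from a pBAD plasmid library in pooled LB shake-flask culture, induced with 0.3% L-arabinose, DNA abundance read by NGS, three biological replicates, DESeq2 with apeglm shrinkage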
# Measurement protocol: shrunken log2 fold change of peptide-encoding DNA abundance (4.5 h post-induction vs induction); higher = less antimicrobial activity (less host growth inhibition)
# Condition: time post-induction: 4.5 h; library: site-saturation at positions 5, 18, 19, 20
Documented shrunken log2 fold change across a set of sequences
Answer using only a numeral; do not append any unit.

{"Sequence code": "RRIRTRPPRLPRPRPRPPPPPRP", "Property measured": "shrunken log2 fold change", "Observed result": 0.862}
{"Sequence code": "RRIRCRPPRLPRPRPRPFRPPRP", "Property measured": "shrunken log2 fold change", "Observed result": -0.515}

INPUT: Dear colleague, I am looking for the recorded shrunken log2 fold change of the following sequence: RRIRNRPPRLPRPRPRPAHFPRP
OUTPUT: 0.292

INPUT: Same for RRIRCRPPRLPRPRPRPKFGPRP
OUTPUT: 0.231

INPUT: Try the sequence RRIRVRPPRLPRPRPRPDDPPRP
OUTPUT: 0.359

INPUT: Also RRIRKRPPRLPRPRPRPDDPPRP , if possible.
OUTPUT: 0.237

INPUT: And what about the sequence RRIRMRPPRLPRPRPRPESVPRP ?
OUTPUT: 0.958
